Recorded protein stability index by entry
B1: SNAP91 (parent)
chain: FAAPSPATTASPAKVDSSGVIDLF

- Variants of: B1
- protocol-notes: protein stability index of a GFP-peptide fusion (GPS, HEK-293T) (PSI 1-6); higher = more stable;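 also: lentivirally expressed fusions sorted by FACS into six bins by GFP to DsRed ratio, PSI derived from sequencing read proportions per bin multiplied by bin number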
- details: c terminus: a fixed tail appended
Give your answer as a number; write no unit.

Consider the following illustrative entries.
| alteration | protein stability index |
| --- | --- |
| P4I | 1.77 |
| K14T | 2.38 |

Prompt: Field request: protein stability index | item: "S17M"
Completion: 2.16

Prompt: Field request: protein stability index | item: "G19M"
Completion: 1.92

Prompt: Field request: protein stability index | item: "F1R"
Completion: 2.94

Prompt: Field request: protein stability index | item: "K14S"
Completion: 2.29

Prompt: Field request: protein stability index | item: "S17K"
Completion: 2.29

Prompt: Field request: protein stability index | item: "P4W"
Completion: 1.76

Prompt: Field request: protein stability index | item: "K14D"
Completion: 2.47

Prompt: Field request: protein stability index | item: "D16F"
Completion: 1.68

Prompt: Field request: protein stability index | item: "T9H"
Completion: 2.66

Reference for the values: the supplement of paper PMC10567573
